# measuredTarget: PDE10A2 (Homo sapiens, UniProt Q9Y233)
# Construct: residues serine 449 to aspartate 789; His6 (H6) with thrombin cleavage site (N, cleaved yes)
# Sequence (Q9Y233 715-1055): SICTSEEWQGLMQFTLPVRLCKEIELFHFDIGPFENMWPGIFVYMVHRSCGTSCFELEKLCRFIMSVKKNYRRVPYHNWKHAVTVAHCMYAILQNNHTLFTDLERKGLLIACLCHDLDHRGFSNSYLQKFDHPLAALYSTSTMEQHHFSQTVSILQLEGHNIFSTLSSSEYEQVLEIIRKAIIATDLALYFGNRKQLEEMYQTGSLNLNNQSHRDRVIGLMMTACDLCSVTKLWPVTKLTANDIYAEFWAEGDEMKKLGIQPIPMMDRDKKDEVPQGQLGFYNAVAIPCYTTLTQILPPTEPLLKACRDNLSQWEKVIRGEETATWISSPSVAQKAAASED
# assaySummary: PDE10A2 inhibition, Scintillation Proximity Assay (SPA)
# experimentalParameters: catalytic domain of human PDE10A2 (S449-D789), 0.25 nM enzyme, 50 nM cGMP + 50 nM [3H]-cGMP, 30 minutes at room temperature
reportedEndpoint: IC50 (nM)

Look over these answered cases.
{"columns": ["compoundString", "IC50 (nM)"],
 "data": [
  ["O=c1ccn(-c2cccc(Cl)c2)nc1-c1ccnn1-c1ccc(Cl)c2ccccc12", 46],
  ["CC(=O)Nc1cccc(-n2ccc(=O)c(-c3ccnn3-c3ccccc3F)n2)c1", 21]
]}

[1] N#Cc1cccc(-n2nccc2-c2nn(-c3cccc(S(=O)(=O)C(F)(F)F)c3)ccc2=O)c1
[2] O=c1ccn(-c2ccc(OC(F)F)cc2)nc1-c1ccnn1-c1cccc(F)c1
(Q) Pick the one with the larger IC50: 1 vs 2 Which one? Tell me its label.
(A) 2
(2: 105 nM, 1: 11 nM)

---

# measuredTarget: PDE10A2 (Homo sapiens)
# Construct: residues serine 449 to aspartate 789; His6 (H6) with thrombin cleavage site (N, cleaved yes); made in house; host or cells: E. coli BL21(DE3) pLysS
# assaySummary: PDE10A2 inhibition, Scintillation Proximity Assay (SPA)
# Format: biochemical
# experimentalParameters: catalytic domain of human PDE10A2 (S449-D789), 0.25 nM enzyme, 50 nM cGMP + 50 nM [3H]-cGMP, 30 minutes at room temperature
reportedEndpoint: IC50 (nM)

{"columns": ["compoundString", "unitDescriptor", "IC50"],
 "data": [
  ["O=c1ccn(-c2cccc(OC(F)(F)F)c2)nc1-c1ccnn1-c1ccc2c(c1)OC(F)(F)O2", "nM", 155],
  ["CCc1cccc(-n2ccc(=O)c(-c3ccnn3-c3ccccc3)n2)c1", "nM", 25],
  ["CS(=O)(=O)c1cccc(-n2ccc(=O)c(-c3ccnn3-c3ccc(F)cc3F)n2)c1", "nM", 54],
  ["CC(=O)N(C)c1cccc(-n2ccc(=O)c(-c3ccnn3-c3ccccc3F)n2)c1", "nM", 6],
  ["O=c1ccn(-c2cccc(OC(F)(F)F)c2)nc1-c1ccnn1-c1cccc2ncccc12", "nM", 13],
  ["COc1cccc(-n2ccc(=O)c(-c3ccnn3-c3ccccc3)n2)c1", "nM", 80],
  ["O=c1ccn(-c2ccc(OCC(F)(F)F)cc2)nc1-c1ccnn1-c1cccc(Cl)c1", "nM", 3],
  ["O=c1ccn(-c2cccc(S(=O)(=O)C(F)(F)F)c2)nc1-c1ccnn1-c1ccccc1", "nM", 17]
]}

[a] O=c1ccn(-c2cccc(O)c2)nc1-c1ccnn1-c1ccc2c(c1)OCCO2
[b] O=c1ccn(-c2ccccc2)nc1-c1ccnn1-c1ccccc1F
(Q) Between a and b , whose measured IC50 reads higher? Your answer should be the label of the entry you select.
(A) b
(b: 47 nM, a: 4 nM)

---

# measuredTarget: PDE10A2 (Homo sapiens, UniProt Q9Y233)
# Construct: residues serine 449 to aspartate 789; His6 (H6) with thrombin cleavage site (N, cleaved yes)
# assaySummary: PDE10A2 inhibition, Scintillation Proximity Assay (SPA)
# experimentalParameters: catalytic domain of human PDE10A2 (S449-D789), 0.25 nM enzyme, 50 nM cGMP + 50 nM [3H]-cGMP, 30 minutes at room temperature
reportedEndpoint: IC50 (nM)

Completed entries (count: 2):
{"columns": ["compoundString", "numericResult"],
 "data": [
  ["O=c1ccn(-c2cccc(S(=O)(=O)N3CCCCC3)c2)nc1-c1ccnn1-c1ccnc2ccc(Cl)cc12", 40],
  ["Cc1cc(-n2nccc2-c2nn(-c3cccc(OC(F)(F)F)c3)ccc2=O)c2cc(F)ccc2n1", 27]
]}

[A] C#Cc1cccc(-n2nccc2-c2nn(-c3ccccc3)ccc2=O)c1
[B] N#Cc1cccc(-n2nccc2-c2nn(-c3ccc(OC(F)(F)F)cc3)ccc2=O)c1
(Q) Which value of IC50 is numerically greater: that of A or that of B ? // caller expects the label of the chosen entry
(A) B

These measurements were taken from patent US8178538B2.
